src = patent US20170212130A1

Target: T1, GFP-His6 (eGFP) (Aequorea victoria, UniProt P42212 2-238 = GFP)
T1 construct: SPR and bead assays speak only of recombinant GFP or eGFP; also called recombinant GFP; A. victoria (Av) GFP
Assay: SPR, GFP immobilized
pKd: −log10 of the molar value.

BINDER: LaG-10 (VHH) VHH: QVQLVESGGGLVQAGDSLQLSCAFSGGTFSTYAMGWFRQAPGKEREFVGGISRSGATTNYEDSVKGRFTISKDNTKNTVYLQLNSLKPEDTAVYYCAARNNILPVTTIDKYEYWGQGTQVTV
pKd: 7.01
//
BINDER: LaG-26 (VHH) VHH: QVQLVESGGGLVQAGASMRLSCAASGITFSLYHWVWFRQAAGREHEFVAGIIRSGGETLSADSVKDRFIISRDDAKNTLYLQMNMLQPEDTATYYCAATHRADWYSSAFREYIFRGQGTQVTVS
pKd: 8.59
//
BINDER: LaG41-LaG2 (G4S) (bispecific antibody, Member of the group m24; also called LaG41-LaG2 G4S Dimer) single-chain fusion of two VHH: MADVQLVESGGGLVQAGGSLRLSCAASGPTGAMAWFRQAPGKEREFVGGISGSETDTYYVDSVKGRFTVDRDNVKNTVYLQMNSLKPEDTAVYYCAARRRITLFTSRTDYDFWGRGTQVTVGGGGSGGGGSGGGGSMAQVQLVESGGGLVQAGGSLRLSCAASGRTFSNYAMGWFRQAPGKEREFVAAISWTGVSTYYADSVKGRFTISRDNDKNTVYVQMNSLIPEDTAIYYCAAVRARSFSDTYSRVNEYDYWGQGTQVTV
pKd: 9.82
